target: Cytochrome P450 3A4 (Homo sapiens) (UniProt P08684); assay: Cytochrome panel assay with activity outcomes; conditions: recombinant CYP, pro-luciferin dealkylation, luminescence, p450-cyp3a4; series mostly up to 57.1 µM
Sequence (P08684 whole entry, looked up): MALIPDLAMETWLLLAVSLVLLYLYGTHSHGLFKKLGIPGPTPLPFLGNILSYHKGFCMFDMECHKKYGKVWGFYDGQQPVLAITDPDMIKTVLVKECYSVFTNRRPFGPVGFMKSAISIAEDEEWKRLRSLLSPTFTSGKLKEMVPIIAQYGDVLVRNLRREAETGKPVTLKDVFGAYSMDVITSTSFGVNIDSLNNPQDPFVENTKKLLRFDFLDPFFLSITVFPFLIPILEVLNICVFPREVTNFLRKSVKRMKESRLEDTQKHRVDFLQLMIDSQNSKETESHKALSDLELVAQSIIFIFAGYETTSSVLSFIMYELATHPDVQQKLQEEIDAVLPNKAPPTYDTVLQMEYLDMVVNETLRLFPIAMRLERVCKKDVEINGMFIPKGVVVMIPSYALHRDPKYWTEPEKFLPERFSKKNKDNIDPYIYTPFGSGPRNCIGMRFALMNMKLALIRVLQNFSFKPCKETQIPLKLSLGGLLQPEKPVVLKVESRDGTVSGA
The whole screen tested about 16,000 compounds, of which about 5,100 (32%) were called active. Not shown: some 25% with an inconclusive outcome. This is one part of the list.

molecule	AC50
c1cncc(-c2ccc3ncnc(NCCN4CCOCC4)c3c2)c1	12.6 µM (active)
c1nc(NCCN2CCOCC2)c2cc(-c3ccc4c(c3)OCO4)ccc2n1	5.01 µM (active)
c1ccc(C(c2ccccc2)N2CCC3(CCNCC3)CC2)cc1	inactive
CC(=O)NCCNc1ncnc2ccc(-c3ccc4c(c3)OCO4)cc12	5.01 µM (active)
Oc1ccccc1-c1nnc(-c2ccc(C(F)(F)F)cc2)o1	inactive
FC(F)(F)c1ccccc1-c1cncnc1Nc1ccccc1	0.501 µM (active)
COc1ccc(Oc2c(C=O)c3ccccc3n2C)cc1	17.8 µM (active)
COC(=O)CCC(=O)NNC(=O)c1ccc(Br)cc1	inactive
COc1ccc(C(=O)c2c[nH]c(C(=O)NCc3cccs3)c2)cc1	inactive
O=C(NCc1cccnc1)C1COc2ccccc2O1 (centres undefined)	5.01 µM (active)
c1ccc(-n2ncc3c(NCCCN4CCOCC4)ncnc32)cc1	inactive
c1ccc(C(c2ccccc2)N2CCCC3(CCNCC3)C2)cc1	1.26 µM (active)
O=c1c2ccccc2c(-c2ccccc2)nn1-c1ccc(Cl)c(Cl)c1	inactive
CNc1ncncc1-c1ccccc1C(F)(F)F	0.794 µM (active)
COc1ccc(-c2cc(C(=O)NCc3cccnc3)no2)cc1OC	2.51 µM (active)
O=C(c1ccccc1)c1c[nH]c(C(=O)NCc2cccnc2)c1	4.47 µM (active)
COc1ccccc1C(=O)N/C(=C/c1ccc(Br)cc1)C(=O)NCC(=O)O	8.91 µM (active)
O=C(/C=C/c1ccc(Cl)cc1)NCCN1CCOCC1	inactive
CC(=O)Nc1ccc(NCN2C(=O)C3C4CCC(C4)C3C2=O)cc1 (centres undefined)	inactive
CN(C)[C@@H]1C(=O)C(C(N)=O)=C(O)[C@]2(O)C(=O)C3=C(O)c4c(O)ccc(Cl)c4[C@H](O)[C@H]3C[C@@H]12	inactive
CC(=O)NCCNc1ncnc2ccc(-c3ccoc3)cc12	inactive
CN(C)c1ccc(-c2nc(-n3ccnc3)c3ccccc3n2)cc1	0.631 µM (active)
O=C(OCc1ccccc1)/C(=C/c1ccc(Cl)cc1)NC(=O)c1ccccc1Cl	0.178 µM (active)
COc1ccc(/C=C/C(=O)c2ccoc2)cc1	inactive
